Hey, just so you know, these numbers are from patent US7626031B2.

As a worked illustration, we turn to IC50 data collected for EGFR (Homo sapiens).
outcomeMeasure: IC50

compound="CCN1CCC(Nc2ccc3c(c2)/C(=C(\\c2cccc(OC)c2)c2nc4ccccc4[nH]2)C(=O)N3)CC1 [Entry 26]" observedvalue="50 to 500 nM"
compound="CCCc1ccc(/C(=C2/C(=O)Nc3ccc(NC4CCN(CC)CC4)cc32)c2ncc[nH]2)cc1 [Entry 59]" observedvalue="50 to 500 nM"
compound="Cc1ccc(/C(=C2/C(=O)Nc3ccc(NC4CCN(C)CC4)cc32)c2ncc[nH]2)cc1 [Entry 86]" observedvalue="50 to 500 nM"
compound="CCN1CCC(Nc2ccc3c(c2)/C(=C(/c2nc(C)c[nH]2)c2cccc(F)c2F)C(=O)N3)CC1 [Entry 110]" observedvalue="50 to 500 nM"
compound="CCN1CCC(Nc2ccc3c(c2)/C(=C(/c2nc(C)c[nH]2)c2ccc(Cl)cc2F)C(=O)N3)CC1 [Entry 118]" observedvalue="< 50 nM"
compound="CCN1CCC(Nc2ccc3c(c2)/C(=C(\\c2ccc(C)c(F)c2)c2nc(C)c[nH]2)C(=O)N3)CC1 [Entry 67]" observedvalue="< 50 nM"
compound="O=C1Nc2ccc(NC3CCNCC3)cc2/C1=C(\\c1cccc(F)c1)c1ncc[nH]1 [Entry 81]" observedvalue="> 5000 nM"
compound="CCN1CCC(Nc2ccc3c(c2)/C(=C(\\c2cc(F)cc(F)c2)c2nc(C)c[nH]2)C(=O)N3)CC1 [Entry 74]" observedvalue="50 to 500 nM"
compound="CCN1CCC(Nc2ccc3c(c2)/C(=C(\\c2ccc(C)cc2)c2nc4cc(OC)ccc4[nH]2)C(=O)N3)CC1 [Entry 6]" observedvalue="500 to 5000 nM"
compound="CCN1CCC(Nc2ccc3c(c2)/C(=C(\\c2ccccc2)c2nc(CCN4C(=O)c5ccccc5C4=O)c[nH]2)C(=O)N3)CC1 [Entry 28]" observedvalue="500 to 5000 nM"
compound="COCCN1CCC(Nc2ccc3c(c2)/C(=C(\\c2ccc(C(F)(F)F)c(F)c2)c2ncc[nH]2)C(=O)N3)CC1 [Entry 92]" observedvalue="> 5000 nM"
compound="CCN1CCC(Nc2ccc3c(c2)/C(=C(\\c2cccc(N)c2)c2nc4ccccc4[nH]2)C(=O)N3)CC1 [Entry 21]" observedvalue="500 to 5000 nM"
compound="CCN1CCC(N(C)c2ccc3c(c2)/C(=C(\\c2cccc(Cl)c2)c2nc4ccccc4[nH]2)C(=O)N3)CC1 [Entry 43]" observedvalue="500 to 5000 nM"
compound="CCN1CCC(Nc2ccc3c(c2)/C(=C(/c2ncc[nH]2)c2ccc(C(F)(F)F)cc2F)C(=O)N3)CC1 [Entry 100]" observedvalue="50 to 500 nM"
compound="CCN1CCC(Nc2ccc3c(c2)/C(=C(\\c2ccc(C)cc2)c2ncc[nH]2)C(=O)N3)CC1 [Entry 13]" observedvalue="50 to 500 nM"
compound="CCN1CCC(Oc2ccc3c(c2)/C(=C(\\c2cc(F)cc(F)c2)c2nc4ccccc4[nH]2)C(=O)N3)CC1 [Entry 33]" observedvalue="500 to 5000 nM"
compound="CCN1CCC(Nc2ccc3c(c2)/C(=C(\\c2ccc(F)c(Cl)c2)c2ncc[nH]2)C(=O)N3)CC1 [Entry 53]" observedvalue="500 to 5000 nM"
compound="CCN1CCC(Nc2ccc3c(c2)/C(=C(\\c2ccc(C)c(F)c2)c2nc4ccccc4[nH]2)C(=O)N3)CC1 [Entry 50]" observedvalue="< 50 nM"
compound="COCCN1CCC(Nc2ccc3c(c2)/C(=C(\\c2ccc(F)cc2)c2nc4ccccc4[nH]2)C(=O)N3)CC1 [Entry 47]" observedvalue="500 to 5000 nM"
compound="CCN1CCC(Nc2ccc3c(c2)/C(=C(\\c2ccc(C(F)(F)F)cc2)c2ncc[nH]2)C(=O)N3)CC1 [Entry 60]" observedvalue="500 to 5000 nM"
compound="COCCN1CCC(Nc2ccc3c(c2)/C(=C(\\c2ccc(C)c(F)c2)c2ncc[nH]2)C(=O)N3)CC1 [Entry 63]" observedvalue="50 to 500 nM"
compound="CCN1CCCC(Nc2ccc3c(c2)/C(=C(\\c2ccccc2)c2nc4cc(OC)ccc4[nH]2)C(=O)N3)C1 (centres unmarked) [Entry 2]" observedvalue="500 to 5000 nM"
compound="CCN1CCC(Nc2ccc3c(c2)/C(=C(\\c2ccc(F)cc2)c2nc(C)c[nH]2)C(=O)N3)CC1 [Entry 106]" observedvalue="50 to 500 nM"
compound="CCN1CCC(Nc2ccc3c(c2)/C(=C(/c2nc(C)c[nH]2)c2ccc(C(F)(F)F)cc2F)C(=O)N3)CC1 [Entry 108]" observedvalue="50 to 500 nM"
compound="CCN(CC)CCN1CCC(Nc2ccc3c(c2)/C(=C(\\c2cccc(F)c2)c2ncc[nH]2)C(=O)N3)CC1 [Entry 84]" observedvalue="> 5000 nM"
compound="COCCN1CCC(Nc2ccc3c(c2)/C(=C(\\c2cccc(F)c2)c2nc(-c4ccccc4)c[nH]2)C(=O)N3)CC1 [Entry 96]" observedvalue="50 to 500 nM"
compound="COCCN1CCC(Nc2ccc3c(c2)/C(=C(\\c2cccc(F)c2)c2ncc[nH]2)C(=O)N3)CC1 [Entry 41]" observedvalue="50 to 500 nM"
compound="CCN1CCC(Nc2ccc3c(c2)/C(=C(\\c2ccc(C(F)(F)F)nc2)c2ncc[nH]2)C(=O)N3)CC1 [Entry 68]" observedvalue="> 5000 nM"
compound="COCCN1CCC(Nc2ccc3c(c2)/C(=C(\\c2cccc(OC)c2)c2nc4ccccc4[nH]2)C(=O)N3)CC1 [Entry 39]" observedvalue="500 to 5000 nM"

----------
As a worked illustration, we turn to pIC50 data collected for Flt-1 (Homo sapiens, UniProt P17948).
pIC50: −log10 of the molar value.
outcomeMeasure: pIC50

compound=COCCN1CCC(Nc2ccc3c(c2)/C(=C(\c2cccc(F)c2)c2nc4ccccc4[nH]2)C(=O)N3)CC1 outcomemeasure=pIC50 observedvalue="6.30 to 7.30"
compound=COCCN1CCC(Oc2ccc3c(c2)/C(=C(\c2cc(F)cc(F)c2)c2nc4ccccc4[nH]2)C(=O)N3)CC1 outcomemeasure=pIC50 observedvalue="5.30 to 6.30"
compound=CC1(C)CC(Nc2ccc3c(c2)/C(=C(\c2ccccc2)c2nc4ccccc4[nH]2)C(=O)N3)CC(C)(C)N1 outcomemeasure=pIC50 observedvalue="5.30 to 6.30"
compound=CCN1CCC(Nc2ccc3c(c2)/C(=C(\c2cccc(Cl)c2)c2nc4ccccc4[nH]2)C(=O)N3)CC1 outcomemeasure=pIC50 observedvalue="> 7.30"
compound=CCN1CCC(Nc2ccc3c(c2)/C(=C(\c2cccc(Cl)c2)c2ncc[nH]2)C(=O)N3)CC1 outcomemeasure=pIC50 observedvalue="6.30 to 7.30"
compound=CCN1CCC(Nc2ccc3c(c2)/C(=C(\c2cccc(C(=N)N)c2)c2nc4ccccc4[nH]2)C(=O)N3)CC1 outcomemeasure=pIC50 observedvalue="5.30 to 6.30"
compound="O=C1Nc2ccc(NC3CC4CCC(C3)N4)cc2/C1=C(\\c1ccccc1)c1nc2ccccc2[nH]1 (stereo not shown)" outcomemeasure=pIC50 observedvalue="5.30 to 6.30"

----------
As a worked illustration, we turn to pIC50 data collected for Flt-1 (Homo sapiens).
pIC50: −log10 of the molar value.
outcomeMeasure: pIC50

compound="COc1ccc2[nH]c(/C(=C3\\C(=O)Nc4ccc(NC5CCN(Cc6ccccc6)C5)cc43)c3ccccc3)nc2c1 (centres unmarked)" outcomemeasure=pIC50 observedvalue="6.30 to 7.30"
compound=COCCN1CCC(Nc2ccc3c(c2)/C(=C(\c2cccc(F)c2)c2ncc[nH]2)C(=O)N3)CC1 outcomemeasure=pIC50 observedvalue="6.30 to 7.30"
compound=CCN1CCC(N(C)c2ccc3c(c2)/C(=C(\c2cccc(Cl)c2)c2nc4ccccc4[nH]2)C(=O)N3)CC1 outcomemeasure=pIC50 observedvalue="5.30 to 6.30"
compound=CCN1CCC(Nc2ccc3c(c2)/C(=C(\c2ccc(C)c(F)c2)c2nc4ccccc4[nH]2)C(=O)N3)CC1 outcomemeasure=pIC50 observedvalue="> 7.30"
compound=CCN1CCC(Nc2ccc3c(c2)/C(=C(\c2cccc(C#N)c2)c2nc4ccccc4[nH]2)C(=O)N3)CC1 outcomemeasure=pIC50 observedvalue="5.30 to 6.30"
compound=CCN1CCC(Nc2ccc3c(c2)/C(=C(\c2cccc([N+](=O)[O-])c2)c2nc4ccccc4[nH]2)C(=O)N3)CC1 outcomemeasure=pIC50 observedvalue="6.30 to 7.30"
compound=CS(=O)(=O)N1CCC(Nc2ccc3c(c2)/C(=C(\c2ccccc2)c2nc4ccccc4[nH]2)C(=O)N3)CC1 outcomemeasure=pIC50 observedvalue="5.30 to 6.30"
compound=CCN1CCC(Nc2ccc3c(c2)/C(=C(\c2ccccc2)c2nc(CCN4C(=O)c5ccccc5C4=O)c[nH]2)C(=O)N3)CC1 outcomemeasure=pIC50 observedvalue="6.30 to 7.30"
